UniProt:P00760 data, read-out pIC50
Sequence (P00760 24-246): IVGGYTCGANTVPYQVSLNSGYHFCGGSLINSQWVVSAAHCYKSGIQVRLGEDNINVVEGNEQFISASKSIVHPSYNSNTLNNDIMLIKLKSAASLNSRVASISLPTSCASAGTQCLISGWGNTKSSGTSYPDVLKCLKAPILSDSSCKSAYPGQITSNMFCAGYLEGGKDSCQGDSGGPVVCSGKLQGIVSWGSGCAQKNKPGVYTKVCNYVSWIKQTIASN
Counter-ions that a name gives are not always drawn.
The scale used: pIC50 is minus the common logarithm of the concentration in molar units.

Sample records with pIC50:
Req: # returns recorded pIC50 (system: UniProt:P00760) for CCOC(=O)CCN(CCCOC)C(=O)/C(C)=C/c1ccc(C(=O)Oc2ccc(C(=N)N)cc2)cc1 [Example 1, hydrochloride]
Resp: 6.87

Req: # returns recorded pIC50 (system: UniProt:P00760) for COCCCN(CC(=O)O)C(=O)/C(C)=C/c1ccc(C(=O)Oc2ccc(C(=N)N)cc2)cc1 [Example 3, methanesulfonate]
Resp: 6.85

Further cases:
Req: # returns recorded pIC50 (system: UniProt:P00760) for CCOC(=O)C(C(=O)OCC)N(CCCOC)C(=O)/C(C)=C/c1ccc(C(=O)Oc2ccc(C(=N)N)cc2)cc1 [1(b), acetate]
Resp: 6.77

Req: # returns recorded pIC50 (system: UniProt:P00760) for CCOC(=O)CN(CCCOC)C(=O)/C(C)=C/c1ccc(C(=O)Oc2ccc(C(=N)N)cc2)cc1 [Example 1(a), acetate]
Resp: 6.60
